Test system: beet armyworm (Spodoptera exigua) larvae
Assay: Topical assay on beet armyworm larvae
Type: in vivo
Details: acetone solution, 1 microg/larva, six larvae, mortality at end of two-day period, 21° C., 60% RH
Result Type: Beet Armyworm Mortality (%)

Give the value of Beet Armyworm Mortality (%) reported for the following: CO[C@@H]1[C@@H](OC)[C@H](C)O[C@@H](O[C@H]2C[C@H]3[C@@H]4C=C5C(=O)[C@H](C)[C@@H](O[C@H]6CC[C@H](N(C)C)[C@@H](C)O6)CCC[C@H](C6CCC6)OC(=O)C[C@H]5[C@@H]4C=C(C)[C@@H]3C2)[C@@H]1OC [Compound 4, 21-desethyl-21-cyclobutyl spinosyn D]
83%

Hello, please tell me recorded Beet Armyworm Mortality (%) for this one: CO[C@@H]1[C@@H](OC)[C@H](C)O[C@@H](O[C@H]2C[C@H]3[C@@H]4C=C5C(=O)[C@H](C)[C@@H](O[C@H]6CC[C@H](N(C)C)[C@@H](C)O6)CCC[C@H](C(C)C)OC(=O)C[C@H]5[C@@H]4C=C[C@@H]3C2)[C@@H]1OC [Compound 9, 21-desethyl-21-isopropyl spinosyn A]
100%

Output Beet Armyworm Mortality (%) of CO[C@@H]1[C@@H](OC)[C@H](C)O[C@@H](O[C@H]2C[C@H]3[C@@H]4C=C5C(=O)[C@H](C)[C@@H](O[C@H]6CC[C@H](N(C)C)[C@@H](C)O6)CCC[C@@H](C6CC6)OC(=O)C[C@H]5[C@@H]4C=C[C@@H]3C2)[C@@H]1OC [Compound 1, 21-desethyl-21-cyclopropyl spinosyn A]
33%
